So I've got a bunch of compounds here, and I need their CC50 values.
- System: MT4
- Experiment notes: Concentration required to reduce the viability of mock-infected MT-4 cells by 50%.
- Format: functional
- Test context: Homo sapiens
Lab book: enter the figure in µM, no units written.

Query block: # return recorded CC50 for input Cc1c(Sc2ccccc2Cl)n(COCCO)c(=O)[nH]c1=O
Result block: 130

Query block: Tell us which CC50 value is on record for Cc1c(Sc2cccc(C(C)(C)C)c2)n(COCCO)c(=O)[nH]c1=O
Result block: 75

Query block: Answer with the recorded CC50 of Cc1c(Sc2ccc([N+](=O)[O-])cc2)n(COCCO)c(=O)[nH]c1=O only.
Result block: 190

Query block: Answer with the recorded CC50 for the compound listed here: Cc1c(Sc2cccc(C(=O)O)c2)n(COCCO)c(=O)[nH]c1=O
Result block: 352

Query block: State its CC50: CCc1c(Sc2cc(Cl)cc(Cl)c2)n(COCCO)c(=O)[nH]c1=O
Result block: 51

Query block: Determine its reported CC50: Cc1cn([C@H]2C[C@H](N=[N+]=[N-])[C@@H](CO)O2)c(=O)[nH]c1=O
Result block: 7.8

Query block: Quickly give me recorded CC50 for Cc1c(Sc2cccc(F)c2)n(COCCO)c(=O)[nH]c1=O
Result block: 282

Query block: Query CC50 for Cc1c(Sc2ccc(O)cc2)n(COCCO)c(=O)[nH]c1=O
Result block: 277

Query block: Write down CC50 measured for item Cc1c(Sc2ccccc2)n(COCCO)c(=O)[nH]c1=O
Result block: 743

Query block: Recall and state the measured CC50 for CCc1cccc(Sc2c(C)c(=O)[nH]c(=O)n2COCCO)c1 .
Result block: 181

Query block: Read the entry Cc1c(Sc2cccc(Cl)c2)n(COCCO)c(=O)[nH]c1=O and write its reported CC50.
Result block: 210

Query block: Return the recorded CC50 value; entry: Cc1c(Sc2cccc(CO)c2)n(COCCO)c(=O)[nH]c1=O
Result block: 292

Query block: Consider the compound COC(=O)c1cccc(Sc2c(C)c(=O)[nH]c(=O)n2COCCO)c1 . State its measured CC50.
Result block: 221

Query block: Name the recorded CC50 of the item CCc1c(Sc2ccccc2)n(COCCO)c(=O)[nH]c1=O in your answer.
Result block: 400

Query block: Give the reported CC50 for this compound. Cc1c(Sc2cc(Cl)cc(Cl)c2)n(COCCO)c(=O)[nH]c1=O
Result block: 130

Query block: Fill in CC50 for record Cc1c(Sc2cccc(C#N)c2)n(COCCO)c(=O)[nH]c1=O
Result block: 234

Query block: Give reported CC50 value for CC(=O)c1cccc(Sc2c(C)c(=O)[nH]c(=O)n2COCCO)c1
Result block: 228

Query block: Consider the compound C=CCc1c(Sc2ccccc2)n(COCCO)c(=O)[nH]c1=O and give its recorded CC50.
Result block: 183

Query block: Output measured CC50 for this item: Cc1c(Sc2cccc([N+](=O)[O-])c2)n(COCCO)c(=O)[nH]c1=O
Result block: 170

Query block: Read off the recorded CC50 for Cc1cc(C)cc(Sc2c(C(C)C)c(=O)[nH]c(=O)n2COCCO)c1
Result block: 128

Query block: // fetch CC50 given entry Cc1cc(C)cc(Sc2c(C)c(=O)[nH]c(=S)n2COCCO)c1
Result block: 172

Query block: # return recorded CC50 for entry Cc1c(Sc2ccccc2)n(COCCO)c(=S)[nH]c1=O
Result block: 123

Query block: Entry Cc1c(Sc2cccc(Br)c2)n(COCCO)c(=O)[nH]c1=O needs its CC50 filled in; supply it.
Result block: 141

Query block: Input Cc1c(Sc2cccc(C(F)(F)F)c2)n(COCCO)c(=O)[nH]c1=O , output reported CC50.
Result block: 196

Query block: Quote CC50 reported for CC(C)c1c(Sc2ccccc2)n(COCCO)c(=O)[nH]c1=O please.
Result block: 231

Query block: Name the recorded CC50 of the item Cc1c(Sc2cccc(I)c2)n(COCCO)c(=O)[nH]c1=O in your answer.
Result block: 106

Query block: Give the reported value of CC50 for this record: Cc1cccc(Sc2c(C)c(=O)[nH]c(=O)n2COCCO)c1
Result block: 420

Query block: Provide CC50 value for the following compound: CCc1c(Sc2cc(C)cc(C)c2)n(COCCO)c(=O)[nH]c1=O
Result block: 149

Query block: Return reported CC50. Input compound: O=C(Nc1ccccc1)c1c(Sc2ccccc2)n(COCCO)c(=O)[nH]c1=O
Result block: 18

Query block: Give a short answer stating reported CC50 for Cc1cc(C)cc(Sc2c(C)c(=O)[nH]c(=O)n2COCCO)c1 .
Result block: 243

Query block: Answer with reported CC50 of CC(=O)c1ccc(Sc2c(C)c(=O)[nH]c(=O)n2COCCO)cc1
Result block: 110

Query block: Identify CC50 associated with the compound CCCc1c(Sc2ccccc2)n(COCCO)c(=O)[nH]c1=O
Result block: 244

Query block: Query CC50 for COC(=O)c1c(Sc2ccccc2)n(COCCO)c(=O)[nH]c1=O
Result block: 6.6

Query block: Specify measured CC50 for Cc1c(Sc2cccc(O)c2)n(COCCO)c(=O)[nH]c1=O .
Result block: 446

Query block: Write down CC50 measured for item Cc1c(Sc2cccc(C(N)=O)c2)n(COCCO)c(=O)[nH]c1=O
Result block: 306
